This listing pairs compounds with measured fitness.
test system: B. subtilis 168; test: fitness (endpoint OD595 vs no drug) (fraction); higher = more growth; conditions: first compound 1.5 µg/mL; partner 0.125 µg/mL;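 further: OD595 on entry to stationary phase over no-drug wells; at most 1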
// print number alone

| compound | fitness |
| --- | --- |
| O=C(O)[C@H]1/C(=C/CO)O[C@@H]2CC(=O)N21 [Clavulanic acid] + CCC[C@@H]1C[C@@H](C(=O)N[C@@H]([C@H]2O[C@H](SC)[C@H](O)[C@@H](O)[C@H]2O)[C@H](C)Cl)N(C)C1 [Clindamycin] | 0.322 |
| O=C(O)[C@H]1/C(=C/CO)O[C@@H]2CC(=O)N21 [Clavulanic acid] + CC1=C(C(=O)O)N2C(=O)[C@@H](NC(=O)[C@H](N)c3ccccc3)[C@H]2SC1 [Cephalexin] | 0.904 |
| O=C(O)[C@H]1/C(=C/CO)O[C@@H]2CC(=O)N21 [Clavulanic acid] + CC(=O)NC[C@H]1CN(c2ccc(N3CCOCC3)c(F)c2)C(=O)O1 [Linezolid] | 0.659 |

Could you now look at the following compound, please?
get_value(item= O=C(O)[C@H]1/C(=C/CO)O[C@@H]2CC(=O)N21 [Clavulanic acid] + C[C@H]1COc2c(N3CCN(C)CC3)c(F)cc3c(=O)c(C(=O)O)cn1c23 [Levofloxacin] , readout=fitness) returns 0.0536

###

system: B. subtilis 168; experiment: fitness (endpoint OD595 vs no drug) (fraction); higher = more growth; conditions: first compound 0.5 µg/mL; partner 4 µg/mL;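 further: OD595 on entry to stationary phase over no-drug wells; at most 1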
recorded-endpoint: fitness

# CC[C@H]1OC(=O)[C@H](C)[C@@H](O[C@H]2C[C@@](C)(OC)[C@@H](O)[C@H](C)O2)[C@H](C)[C@@H](O[C@@H]2O[C@H](C)C[C@H](N(C)C)[C@H]2O)[C@](C)(O)C[C@@H](C)CN(C)[C@H](C)[C@@H](O)[C@]1(C)O [Azithromycin] + CN[C@@H]1[C@H](O)[C@H](NC)[C@H]2O[C@@]3(O)C(=O)C[C@@H](C)O[C@H]3O[C@@H]2[C@H]1O [Spectinomycin] with B. subtilis 168: fitness is 0.816

###

system: S. aureus DSM 20231; assay: Bliss interaction score (quartile over a dose matrix) (fitness difference); higher = more antagonism (negative = synergy);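 further: first quartile when negative (synergy) and third quartile when positive (antagonism)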
recorded-endpoint: Bliss interaction score

Past entries and their recorded results:
| compound | Bliss interaction score |
| --- | --- |
| CC[C@H]1OC(=O)[C@H](C)[C@@H](O[C@H]2C[C@@](C)(OC)[C@@H](O)[C@H](C)O2)[C@H](C)[C@@H](O[C@@H]2O[C@H](C)C[C@H](N(C)C)[C@H]2O)[C@](C)(O)C[C@@H](C)CN(C)[C@H](C)[C@@H](O)[C@]1(C)O [Azithromycin] + O=C(O[C@@H]1Cc2c(O)cc(O)cc2O[C@@H]1c1cc(O)c(O)c(O)c1)c1cc(O)c(O)c(O)c1 [EGCG] | -0.13 |
| CC[C@H]1OC(=O)[C@H](C)[C@@H](O[C@H]2C[C@@](C)(OC)[C@@H](O)[C@H](C)O2)[C@H](C)[C@@H](O[C@@H]2O[C@H](C)C[C@H](N(C)C)[C@H]2O)[C@](C)(O)C[C@@H](C)CN(C)[C@H](C)[C@@H](O)[C@]1(C)O [Azithromycin] + COc1ccc(C[C@H](N)C(=O)N[C@H]2[C@@H](O)[C@H](n3cnc4c(N(C)C)ncnc43)O[C@@H]2CO)cc1 [Puromycin] | -0.0839 |
| Cc1onc(-c2ccccc2)c1C(=O)N[C@@H]1C(=O)N2[C@@H]1SC(C)(C)[C@@H]2C(=O)O [Oxacillin] + CC1(C)S[C@@H]2[C@H](NC(=O)Cc3ccccc3)C(=O)N2[C@H]1C(=O)O [PenicillinG] | 0.0796 |
| CN(N=O)C(=O)N[C@@H](C=O)[C@@H](O)[C@H](O)[C@H](O)CO [Streptozotocin] + CC1=C\[C@@H](O)CC(=O)Cc2nc(co2)C(=O)N2CCC=C2C(=O)O[C@H](C(C)C)[C@H](C)/C=C/C(=O)NC\C=C\1 [Virginiamycin M1] | -0.0415 |
| CC[C@H]1OC(=O)[C@H](C)C(=O)[C@H](C)[C@@H](O[C@@H]2O[C@H](C)C[C@H](N(C)C)[C@H]2O)[C@](C)(OC)C[C@@H](C)C(=O)[C@H](C)[C@H]2N(CCCCn3cnc(-c4cccnc4)c3)C(=O)O[C@]12C [Telithromycin] + COc1cc(Cc2cnc(N)nc2N)cc(OC)c1OC [Trimethoprim] | 0.0276 |

Could you now look at the following compound, please?
get_value(item= CC[C@H]1OC(=O)[C@H](C)C(=O)[C@H](C)[C@@H](O[C@@H]2O[C@H](C)C[C@H](N(C)C)[C@H]2O)[C@](C)(OC)C[C@@H](C)C(=O)[C@H](C)[C@H]2N(CCCCn3cnc(-c4cccnc4)c3)C(=O)O[C@]12C [Telithromycin] + CN(C)c1cc(NC(=O)CNC(C)(C)C)c(O)c2c1C[C@H]1C[C@H]3[C@H](N(C)C)C(O)=C(C(N)=O)C(=O)[C@@]3(O)C(O)=C1C2=O [Tigecycline] , readout=Bliss interaction score) returns -0.0261
